Taken from patent US10378046B2.

Tested on: CC mismatched DNA
Assay: Emission enhancement of complexes upon titration with CC mismatched DNA
Type: binding
Conditions: complex 5 μM, DNA 10 μM; aqueous buffer 50 mM NaCl, 2 mM Tris, pH 7.5
experimental_endpoint: increase in emission intensity in the presence of CC mismatched DNA

>>> reported_measurement("CCCCN1C=CN(Cc2ccc3ccccc3c2)[CH]1[Pt]12[c]3ccccc3-c3cccc([n+]31)-c1cccc[n+]12 (stereo not shown)")
"no emission enhancement"
>>> reported_measurement("CCCCN1C=CN(Cc2ccccc2)[CH]1[Pt]12[c]3ccccc3-c3cccc([n+]31)-c1cccc[n+]12 (stereo not shown)")
"27 fold"
>>> reported_measurement("CCCCN1C=CN(Cc2ccccc2)[CH]1[Pt]12[c]3ccccc3-c3cc(-c4ccccc4)cc([n+]31)-c1cccc[n+]12 (stereo not shown)")
"no emission enhancement"
